# System: Human immunodeficiency virus 1
# assay name: Antiviral activity against HIV1 3B infected in human MT4 cells assessed as reduction in virus-induced cytopathic effect by MTT assay
# Format: functional, organism-based
# assay setup: Human immunodeficiency virus 1, 3B, read-out: pEC50 (converted)
Consider the following partition of reported EC50 into named classes: bucket A (below 4 nM), bucket B (4 nM to below 20 nM), bucket C (20 nM or more)

Look over these answered cases.
| smiles repr | label |
| --- | --- |
| Cc1cc(/C=C/C#N)cc(C)c1Oc1ccnc(Nc2ccc(CN3CC[S+]([O-])CC3)cc2)n1 | bucket A |
| Cc1cc(/C=C/C#N)cc(C)c1Oc1ccnc(Nc2ccc(CN3CCS(=O)(=O)CC3)cc2)n1 | bucket A |
| Cc1cc(C#N)cc(C)c1Oc1ccnc(Nc2ccc(CN3CCN(S(=O)(=O)C(C)C)CC3)cc2)n1 | bucket C |
| Cc1cc(C#N)cc(C)c1Oc1nc(Nc2ccc(C#N)cc2)nc(N)c1Br | bucket B |
| Cc1cc(/C=C/C#N)cc(C)c1Oc1ccnc(Nc2ccc(CN3CCCN(S(=O)(=O)N(C)C)CC3)cc2)n1 | bucket C |
| Cc1cc(C#N)cc(C)c1Oc1ccnc(Nc2ccc(CN3CCCN(S(=O)(=O)C4CC4)CC3)cc2)n1 | bucket C |
| Cc1cc(C#N)cc(C)c1Oc1ccnc(Nc2ccc(CN3CCS(=O)(=O)CC3)cc2)n1 | bucket B |
| Cc1cc(/C=C/C#N)cc(C)c1Oc1ccnc(Nc2ccc(CN3CCSCC3)cc2)n1 | bucket B |
| C=CC(=O)N1CCN(Cc2ccc(Nc3nccc(Oc4c(C)cc(C#N)cc4C)n3)cc2)CC1 | bucket C |
| CCS(=O)(=O)N1CCN(Cc2ccc(Nc3nccc(Oc4c(C)cc(/C=C/C#N)cc4C)n3)cc2)CC1 | bucket B |

Request: The entry to classify is O=C1Nc2ccc(Cl)cc2[C@@](C#CC2CC2)(C(F)(F)F)O1 ; which class holds it?
Result: bucket A

Request: The entry to classify is C=CC(=O)N1CCN(Cc2ccc(Nc3nccc(Oc4c(C)cc(/C=C/C#N)cc4C)n3)cc2)CC1 ; which class holds it?
Result: bucket B

====

# System: Human immunodeficiency virus 1
# assay name: Antiviral activity against HIV1 3B infected in human MT4 cells assessed as reduction in virus-induced cytopathic effect by MTT assay
# Assay type: functional, organism-based
# assay setup: Human immunodeficiency virus 1, 3B, read-out: EC50
Checkbox rule: EC50 lower than 30 nM = rule met; EC50 not lower than 30 nM = rule not met.

Look over these answered cases.
| smiles repr | target or test system | label |
| --- | --- | --- |
| Cc1cn([C@H]2C[C@H](N=[N+]=[N-])[C@@H](CO)O2)c(=O)[nH]c1=O | Human immunodeficiency virus 1 | rule met |
| Cc1cc(/C=C/C#N)cc(C)c1Oc1ccnc(Nc2ccc(CN3CCCN(S(C)(=O)=O)CC3)cc2)n1 | Human immunodeficiency virus 1 | rule met |
| Cc1cc(/C=C/C#N)cc(C)c1Oc1ccnc(Nc2ccc(CN3CCCN(S(=O)(=O)C(C)C)CC3)cc2)n1 | Human immunodeficiency virus 1 | rule met |
| O=C1Nc2ccc(Cl)cc2[C@@](C#CC2CC2)(C(F)(F)F)O1 | Human immunodeficiency virus 1 | rule met |
| Cc1cc(C#N)cc(C)c1Oc1ccnc(Nc2ccc(CN3CCCN(S(C)(=O)=O)CC3)cc2)n1 | Human immunodeficiency virus 1 | rule not met |
| Cc1cc(C#N)cc(C)c1Oc1ccnc(Nc2ccc(CN3CCN(S(=O)(=O)N(C)C)CC3)cc2)n1 | Human immunodeficiency virus 1 | rule not met |

Request: Is it true that EC50 reported for CCS(=O)(=O)N1CCN(Cc2ccc(Nc3nccc(Oc4c(C)cc(/C=C/C#N)cc4C)n3)cc2)CC1 is less than 30 nM?
Result: rule met

Request: Is it true that EC50 reported for CCS(=O)(=O)N1CCN(Cc2ccc(Nc3nccc(Oc4c(C)cc(C#N)cc4C)n3)cc2)CC1 is less than 30 nM?
Result: rule met

Request: Is it true that EC50 reported for Cc1cc(/C=C/C#N)cc(C)c1Oc1ccnc(Nc2ccc(CN3CCSCC3)cc2)n1 is less than 30 nM?
Result: rule met

Request: Is it true that EC50 reported for Cc1cc(C#N)cc(C)c1Oc1ccnc(Nc2ccc(CN3CCCN(S(=O)(=O)C4CC4)CC3)cc2)n1 is less than 30 nM?
Result: rule not met

Request: Is it true that EC50 reported for C=CC(=O)N1CCN(Cc2ccc(Nc3nccc(Oc4c(C)cc(C#N)cc4C)n3)cc2)CC1 is less than 30 nM?
Result: rule not met

====

What follows is a record of IC50 for UniProt Q72547.
Return type: number; implicit unit nM.

Below: 5 compounds and their reported IC50.
| smiles repr | result value |
| --- | --- |
| Cc1cc(/C=C/C#N)cc(C)c1Oc1ccnc(Nc2ccc(CN3CCSCC3)cc2)n1 | 62 |
| C=CC(=O)N1CCN(Cc2ccc(Nc3nccc(Oc4c(C)cc(C#N)cc4C)n3)cc2)CC1 | 160 |
| Cc1cc(/C=C/C#N)cc(C)c1Oc1ccnc(Nc2ccc(CN3CCCN(S(=O)(=O)N(C)C)CC3)cc2)n1 | 94 |
| C=CC(=O)N1CCN(Cc2ccc(Nc3nccc(Oc4c(C)cc(/C=C/C#N)cc4C)n3)cc2)CC1 | 71 |
| Cc1cc(C#N)cc(C)c1Oc1ccnc(Nc2ccc(CN3CCS(=O)(=O)CC3)cc2)n1 | 78 |

Request: Fetch value of IC50 on UniProt Q72547 for Cc1cc(/C=C/C#N)cc(C)c1Oc1ccnc(Nc2ccc(CN3CCS(=O)(=O)CC3)cc2)n1 .
Result: 34

Request: Fetch value of IC50 on UniProt Q72547 for Cc1cc(C#N)cc(C)c1Oc1ccnc(Nc2ccc(CN3CCCN(S(=O)(=O)C4CC4)CC3)cc2)n1 .
Result: 200

Request: Fetch value of IC50 on UniProt Q72547 for Cc1cc(/C=C/C#N)cc(C)c1Oc1ccnc(Nc2ccc(CN3CC[S+]([O-])CC3)cc2)n1 .
Result: 51

Request: Fetch value of IC50 on UniProt Q72547 for Cc1cc(C#N)cc(C)c1Oc1ccnc(Nc2ccc(CN3CCN(S(=O)(=O)C(C)C)CC3)cc2)n1 .
Result: 73

Request: Fetch value of IC50 on UniProt Q72547 for CCS(=O)(=O)N1CCN(Cc2ccc(Nc3nccc(Oc4c(C)cc(/C=C/C#N)cc4C)n3)cc2)CC1 .
Result: 52

====

# assay name: Selectivity index, ratio of CC50 for human MT4 cells to EC50 for antiviral activity against HIV 3B infected in human MT4 cells
# Type: toxicity, cell-based
# assay setup: read-out: Ratio CC50/EC50
Consider the following partition of reported selectivity ratio into named classes: band 1: < 200; band 2: ≥ 200 and < 700; band 3: ≥ 700

Look over these answered cases.
| smiles repr | label |
| --- | --- |
| Cc1cc(/C=C/C#N)cc(C)c1Oc1ccnc(Nc2ccc(CN3CCCN(S(C)(=O)=O)CC3)cc2)n1 | band 2 |
| Cc1cc(C#N)cc(C)c1Oc1ccnc(Nc2ccc(CN3CCN(S(=O)(=O)C(C)C)CC3)cc2)n1 | band 1 |
| Cc1cc(/C=C/C#N)cc(C)c1Oc1ccnc(Nc2ccc(CN3CCN(S(=O)(=O)N(C)C)CC3)cc2)n1 | band 2 |
| Cc1cc(C#N)cc(C)c1Oc1ccnc(Nc2ccc(CN3CCSCC3)cc2)n1 | band 3 |

Request: The entry to classify is Cc1cc(C#N)cc(C)c1Oc1ccnc(Nc2ccc(CN3CCCN(S(=O)(=O)N(C)C)CC3)cc2)n1 ; which class holds it?
Result: band 1

Request: The entry to classify is CCS(=O)(=O)N1CCN(Cc2ccc(Nc3nccc(Oc4c(C)cc(C#N)cc4C)n3)cc2)CC1 ; which class holds it?
Result: band 2

Request: The entry to classify is Cc1cc(C#N)cc(C)c1Oc1ccnc(Nc2ccc(CN3CCN(S(=O)(=O)C4CC4)CC3)cc2)n1 ; which class holds it?
Result: band 1

Request: The entry to classify is Cc1cc(C#N)cc(C)c1Oc1ccnc(Nc2ccc(CN3CCS(=O)(=O)CC3)cc2)n1 ; which class holds it?
Result: band 3

====

# assay name: Cytotoxicity against human MT4 cells assessed as reduction in cell viability by MTT assay
# Format: cell-based
# assay setup: MT4 cells
property label: CC50

Below: 4 compounds and their reported CC50.
| compound | CC50 |
| --- | --- |
| Nc1ccn([C@@H]2CS[C@H](CO)O2)c(=O)n1 [LAMIVUDINE] | > 87.2 µM |
| Cc1ccnc2c1NC(=O)c1cccnc1N2C1CC1 [NEVIRAPINE] | > 15 µM |
| Cc1cc(C#N)cc(C)c1Oc1nc(Nc2ccc(C#N)cc2)nc(N)c1Br [ETRAVIRINE] | > 4.59 µM |
| O=C1Nc2ccc(Cl)cc2[C@@](C#CC2CC2)(C(F)(F)F)O1 [EFAVIRENZ] | > 6.34 µM |

Request: Determine from records and report CC50 for Cc1cn([C@H]2C[C@H](N=[N+]=[N-])[C@@H](CO)O2)c(=O)[nH]c1=O [ZIDOVUDINE]
Result: > 7.48 µM
